System: Hep-2 cells
assay explanation: Cell viability assay for the RSV table (CC50)
Format: cell-based
measured metric: CC50

Inquiry: // returns reported CC50 for input CCCCCCCCCCCCCCCCCCOC[C@H](COP(=O)(O)OC[C@H]1O[C@@](C#N)(c2ccc3c(N)ncnn23)[C@H](O)[C@@H]1O)OCc1ccccc1 [Compound 15d]
Reply text: 14.7 µM

----------
Provide the reported CC50 of each item.
System: Calu-3 cells
assay explanation: Cell viability assay CellTiter-Glo, Calu-3 cells (Example 7)
test context: Calu-3 cells, CellTiter-Glo
Give bare numbers, in µM.

compound | measured metric | measured result
CCCCCCCCCCCCCCCCCCOC[C@H](COP(=O)(O)OC[C@H]1O[C@@](C#N)(c2ccc3c(N)ncnn23)[C@H](O)[C@@H]1O)OCc1ccccc1 [Compound 15d] | CC50 | 98.2

Inquiry: // returns reported CC50 for input CCCCCCCCCCCCCCCCCCOCCOP(=O)(O)OC[C@H]1O[C@@](C#N)(c2ccc3c(N)ncnn23)[C@H](O)[C@@H]1O
Reply text: 98.7

----------
Provide the reported CC50 of each item.
System: human PBMCs
assay explanation: Cytotoxicity (CC50) in human PBMCs
Format: cell-based
Answers are plain numbers, in µM.

compound | experimental system | CC50 (µM)
CCCCCCCCCCCCCCCCCCOCCOP(=O)(O)CO[C@H](C)Cn1cnc2c(N)ncnc21 [ODE-TFV] | human PBMCs | 1.28

Let's switch to this compound now.
Inquiry: // returns reported CC50 for input CCCCCCCCCCCCCCCCCCOCCOP(=O)(CO[C@H](C)Cn1cnc2c(N)ncnc21)OCc1ccc(C)cc1 (some centres unmarked) [ODE-4MeBN-TFV]
Reply text: 3.41

----------
Provide the reported EC90 of each item.
Tested on: SARS-CoV-2
assay explanation: SARS-CoV-2 infection assay in TMPRSS2-Vero cells, nucleocapsid immunofluorescence (Example 6)
Format: cell-based
test context: MOI 0.01, 32 hours
One number for each entry, in nM.

Examples with answers:
compound | EC90 [nM]
CCCCCCCCCCCCCCCCCCOC[C@H](COP(=O)(OCc1ccccc1)OC[C@H]1O[C@@](C#N)(c2ccc3c(N)ncnn23)[C@H](O)[C@@H]1O)OCc1ccccc1 (stereo partly shown) | 15300
CCCCCCCCCCCCCCCCCCCCOP(=O)(O)OC[C@H]1O[C@](C#N)(c2ccc3c(N)ncnn23)[C@H](O)[C@@H]1O | 2180
CCCCCCCCCCCCCCCCCCOC[C@H](COP(=O)(O)OC[C@H]1O[C@@](C#N)(c2ccc3c(N)ncnn23)[C@H](O)[C@@H]1O)OCc1cccc(F)c1 [Compound 15h] | 629

Let's switch to this compound now.
Inquiry: // returns reported EC90 for input CCCCCCCC/C=C\CCCCCCCCOC[C@H](COP(=O)(O)OC[C@H]1O[C@@](C#N)(c2ccc3c(N)ncnn23)[C@H](O)[C@@H]1O)OCc1ccc(OC)c(F)c1 [Compound 15m]
Reply text: 524

----------
Provide the reported CC50 of each item.
Test system: VERO E6 cells
assay explanation: Cellular cytotoxicity in Vero E6 cells, MTT assay (Example 2)
Assay type: cell-based
Protocol: Ten thousand Vero E6 cells were seeded in 100 microliters of culture medium in 96 well plates. The following day serial two-fold dilutions of antiviral compounds or the DMSO-containing vehicle were added to each well. The USA WA-01 strain of SARS CoV-2 was added to each well at a multiplicity of infection of 0.1 thirty minutes later. […] Cellular cytotoxicity was also measured in VERO E6 cells. […] Cytotoxicity (CC50) was assessed using a commercially available MTT assay.

Respectfully, I request CC50 for each entry included below.
1. CCCCCCCCCCCCCCCCCCOC[C@H](COP(=O)(O)OC[C@H]1O[C@@](C#N)(c2ccc3c(N)ncnn23)[C@H](O)[C@@H]1O)OCc1ccccc1 [Compound 15d]
2. CCCCCCCCCCCCCCCCCCOCCOP(=O)(O)OC[C@H]1O[C@@](C#N)(c2ccc3c(N)ncnn23)[C@H](O)[C@@H]1O [Compound 4c, 2-(Octadecyloxy)ethyl-phospho-RVn]
3. CCCCCCCCCCCCCCCCOCCCOP(=O)(O)OC[C@H]1O[C@@](C#N)(c2ccc3c(N)ncnn23)[C@H](O)[C@@H]1O [Compound 4b, 3-(Hexadecyloxy)propyl-phospho-RVn]

Reply text:
> 50 µM
> 50 µM
21 µM

----------
Provide the reported CC50 of each item.
System: TMPRSS2-Vero cells
assay explanation: Cytotoxicity in TMPRSS2-Vero cells, nuclei count (Example 6)
Format: cell-based
test context: TMPRSS2-Vero cells; read-out: CC50

molecule | CC50
CCCCCCCCCCCCCCCCCCCCOP(=O)(O)OC[C@H]1O[C@](C#N)(c2ccc3c(N)ncnn23)[C@H](O)[C@@H]1O [Compound 4a, Eicosyl-phospho-RVn] | > 20 µM

Respectfully, I request CC50 for each entry included below.
1. CCCCCCCCCCCCCCCCCCOCC(COP(=O)(O)OC[C@H]1O[C@@](C#N)(c2ccc3c(N)ncnn23)[C@H](O)[C@@H]1O)OCc1ccccc1 (mixture of isomers) [Compound 15e]
2. CCCCCCCC/C=C\CCCCCCCCOC[C@H](COP(=O)(O)OC[C@H]1O[C@@](C#N)(c2ccc3c(N)ncnn23)[C@H](O)[C@@H]1O)OCc1ccc(OC)c(F)c1 [Compound 15m]

Reply text:
["> 20 µM", "> 20 µM"]

----------
assay explanation: in vitro
test context: human
measured metric: CC50 (µM)
Numbers only, in µM.

Inquiry: // returns reported CC50 for input CCCCCCCCCCCCCCCCCCOC[C@H](COP(=O)(O)OC[C@H]1O[C@@](C#N)(c2ccc3c(N)ncnn23)[C@@H](O)C1O)OCc1ccccc1C#N (stereo partly shown) [OD(2-CN-Bn)G-P-RVn]
Reply text: 82.8

----------
assay explanation: in vitro
test context: African green monkey
measured metric: CC50 at 48.5 h

Inquiry: // returns reported CC50 at 48.5 h for input N#C[C@@]1(c2ccc3c(N)ncnn23)O[C@H](CO)[C@@H](O)[C@H]1O [RVn, reference compound]
Reply text: > 100 µM

----------
System: Calu-3 cells
assay explanation: Cytotoxicity in Calu-3 cells, nuclei count or CellTiter-Glo (Example 6)
test context: for select compounds up to 100 μM by CellTiter-Glo
Provide the reported CC50 of each item.

Examples with answers:
molecule | CC50
CCCCCCCCCCCCCCCCCCOCCO[P@]1(=O)OC[C@H]2O[C@](C#N)(c3ccc4c(N)ncnn34)[C@H](O)[C@@H]2O1 | > 20 µM
CCCCCCCCCCCCCCCCCCOC[C@H](COP(=O)(O)OC[C@H]1O[C@@](C#N)(c2ccc3c(N)ncnn23)[C@H](O)[C@@H]1O)OCc1cccc(C(F)(F)F)c1 [Compound 15o] | > 20 µM
CCCCCCCCCCCCCCCCCCOCCOP1(=O)OCC2OC(C#N)(c3ccc4c(N)ncnn34)C(O)C2O1 (stereo not drawn) | > 20 µM
CCCCCCCC/C=C\CCCCCCCCOC[C@H](COP(=O)(O)OC[C@H]1O[C@@](C#N)(c2ccc3c(N)ncnn23)[C@H](O)[C@@H]1O)OCc1ccc(OC)c(F)c1 [Compound 15m] | 58.5 µM
CCCCCCCCCCCCCCCCCCOC[C@H](COP(=O)(O)OC[C@H]1O[C@@](C#N)(c2ccc3c(N)ncnn23)[C@H](O)[C@@H]1O)OCc1cccc(F)c1 [Compound 15h] | > 20 µM

Respectfully, I request CC50 for each entry included below.
1. CCCCCCCCCCCCCCCCCCOC[C@H](COP(=O)(O)OC[C@H]1O[C@@](C#N)(c2ccc3c(N)ncnn23)[C@H](O)[C@@H]1O)OCc1ccccc1 [Compound 15d]
2. CCCCCCCC/C=C\CCCCCCCCOC[C@H](COP(=O)(O)OC[C@H]1O[C@@](C#N)(c2ccc3c(N)ncnn23)[C@H](O)[C@@H]1O)OCc1ccccc1 [Compound 15l]
3. CCCCCCCCCCCCCCCCCCOC[C@H](COP1(=O)OC[C@H]2O[C@@](C#N)(c3ccc4c(N)ncnn34)[C@H](O)[C@@H]2O1)OCc1ccccc1 (stereo partly drawn)
4. CCCCCCCCCCCCCCCCCCOC[C@@H](COP(=O)(O)OC[C@H]1O[C@@](C#N)(c2ccc3c(N)ncnn23)[C@H](O)[C@@H]1O)OCc1ccccc1 [Compound 15n]

Reply text:
1. > 20 µM
2. 79 µM
3. > 20 µM
4. > 20 µM

----------
Tested on: Hep-2 cells
assay explanation: Cell viability assay for the RSV table (CC50)
Assay type: cell-based
test context: Hep-2 cells; read-out: CC50
measured metric: CC50
The answer consists of two parts: a number and, after it, its unit.

Examples with answers:
compound | measured metric | measured result
CCCCCCCCCCCCCCCCCCOC[C@H](COP(=O)(O)OC[C@H]1O[C@@](C#N)(c2ccc3c(N)ncnn23)[C@H](O)[C@@H]1O)OCc1ccc(OC)c(F)c1 [Compound 15j] | CC50 | 9.6 µM
CCCCCCCC/C=C\CCCCCCCCOC[C@H](COP(=O)(O)OC[C@H]1O[C@@](C#N)(c2ccc3c(N)ncnn23)[C@H](O)[C@@H]1O)OCc1ccc(OC)c(F)c1 [Compound 15m] | CC50 | 12.5 µM

Inquiry: // returns reported CC50 for input CCCCCCCCCCCCCCCCOC[C@H](COP(=O)(O)OC[C@H]1O[C@@](C#N)(c2ccc3c(N)ncnn23)[C@H](O)[C@@H]1O)OCc1ccc(OC)c(F)c1 [Compound 15c]
Reply text: 20.6 µM
